# procedure_summary: pKa values of end-capping agents
# Type: physicochemical
# assay_conditions: approximated based on the values of similar structures
readout_type: pKa

> print(dat)
              smiles.notation  quantitative.readout
1  CC(C)(c1ccccc1)c1ccc(O)cc1                  10.5
